# test.system: Plasmodium falciparum protein kinase 6 (PK6) (Plasmodium falciparum)
# Construct: 6-Histidine (N); made in house
# Sequence (Q8IDW1 1-305): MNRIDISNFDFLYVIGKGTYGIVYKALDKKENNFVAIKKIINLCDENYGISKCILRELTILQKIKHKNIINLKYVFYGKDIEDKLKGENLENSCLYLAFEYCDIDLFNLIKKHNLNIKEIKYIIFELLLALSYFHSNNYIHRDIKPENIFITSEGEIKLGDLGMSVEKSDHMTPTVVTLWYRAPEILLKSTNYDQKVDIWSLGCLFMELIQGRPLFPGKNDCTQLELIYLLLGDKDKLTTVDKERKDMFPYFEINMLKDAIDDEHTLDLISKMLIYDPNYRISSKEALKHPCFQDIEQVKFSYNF
# protocol.summary: biochemical
# experimental.conditions: hits below 1 uM; read-out: PK6 IC50
outcome.measure: IC50 (nM)

Examples with answers:
Inquiry: Fill blank: measured IC50 of the molecule Cc1ccc(Nc2ccnc(Nc3ccc4c(c3)CS(=O)(=O)C4)n2)cc1O.Cl [TCMDC-138484] is ____.
Reply text: 122

Inquiry: Query (molecule): Cn1cnc2c(Nc3ccncc3)nc(-c3ccc4c(c3)OCO4)nc21.O=C(O)C(F)(F)F [TCMDC-141274] ; field requested: IC50
Reply text: 500

Inquiry: Given the molecule Cl.NC(=O)c1ccccc1Nc1nc(Nc2cccc(N3CCN(CCO)CC3)c2)ncc1Cl [TCMDC-134114] , what is its reported IC50?
Reply text: 80

A: CN(C)Cc1cccc(-c2cc3c(-c4cnn(C)c4)c(Cl)cnc3[nH]2)c1 [TCMDC-134147]
B: CN1CCC(NC(=O)c2cccc(Nc3cc(Nc4cccc(Br)c4)ncn3)c2)CC1 [TCMDC-124773]
C: N#Cc1cnc(Nc2ccc(Oc3ccccc3)cc2)nc1Nc1cccc(S(N)(=O)=O)c1 [TCMDC-138613]
D: CCN(CC)CCCOc1ccc(Nc2nccc(-c3c(-c4cccc(NC(=O)c5c(F)cccc5F)c4)nn4ccccc34)n2)cc1F [TCMDC-135920]
Inquiry: Descending sort on IC50 required. Field: ranking. Enter the labels in the order requested.
Reply text: B, D, C, A

P: CC(=O)c1ccc(NC(=O)Nc2ccc(N(C)c3ccnc(Nc4cccc(CS(C)(=O)=O)c4)n3)cc2)cc1 [TCMDC-138736]
Q: CCNC(=O)Nc1ccc(N(C)c2ccnc(Nc3ccc(CS(C)(=O)=O)cc3)n2)cc1.Cl [TCMDC-138759]
R: CNC(=O)c1ccccc1Nc1nc(Nc2ccc(CCN3CCN(C)CC3)cc2)ncc1Cl.Cl [TCMDC-133800]
Inquiry: Please rank these molecules by IC50 in descending order. Dear reader, please state the labels in the requested order.
Reply text: Q, P, R

I: CS(=O)(=O)Cc1ccc(Nc2nccc(-c3c(-c4cccc(NC(=O)c5c(F)cccc5F)c4)nn4ccccc34)n2)cc1 [TCMDC-135669]
II: CC(=O)Nc1cccc(Nc2nccc(-c3c(-c4cccc(NC(=O)c5c(F)cccc5F)c4)nn4ncccc34)n2)c1 [TCMDC-135548]
Inquiry: Higher IC50 between I and II ? API: response body contains the label of the selected item.
Reply text: I
(I: 276 nM, II: 144 nM)
